# Tested on: 883617-216-R-J1-PDC complex spheroid viability;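 further: exposure lasted seven days after three days of spheroid growth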
# Experimental protocol: Anticancer human tumor 883617-216-R-J1-PDC patient-derived bladder carcinoma cell line growth inhibition
# Condition label: curve of first compound; second compound 10 µM
# Text: Multicellular complex tumor spheroid response to LSD1 Inhibitor Iadademstat in combination with a variety of drugs and investigational agents in selected tumor cell lines The current study was undertaken to assess response to LSD1 inhibitors in combination with standard-of-care drugs and investigational agents in solid tumor complex spheroid models as well as in the K-562 leukemia. […] Compounds. […] If the clinical Cmax for an agent had not been determined, the highest concentration tested was 10 microM. […]
Quantity kind: IC50 (nM)
Numbers only; they are read as nM.

1. CC(C)CC(NC(=O)C(Cc1ccccc1)NC(=O)c1cnccn1)B(O)O (stereo not given) + NC1CCC(NC2CC2c2ccccc2)CC1: 1.76
2. O=C(C=Cn1cnc(-c2cc(C(F)(F)F)cc(C(F)(F)F)c2)n1)NNc1cnccn1 + NC1CC1c1ccc(-c2cccc(O)c2)cc1: 4.37
3. CC(C)CC(NC(=O)CNC(=O)c1cc(Cl)ccc1Cl)B1OC(=O)CC(CC(=O)O)(C(=O)O)O1 (stereo not given) + NC1CCC(NC2CC2c2ccccc2)CC1: 6.38
4. CC1COCCN1c1cc(C2(S(C)(=N)=O)CC2)nc(-c2ccnc3[nH]ccc23)n1 (stereo not given) + NC1CC1c1ccc(-c2cccc(O)c2)cc1: 152
5. NS(=O)(=O)OCC1CC(n2ccc3c(NC4CCc5ccccc54)ncnc32)CC1O (stereo not given) + NC1CCC(NC2CC2c2ccccc2)CC1: 392

In: Recorded IC50 for COc1ccc([C@@H](O)c2cc(-c3ncnc4cc(N5CCOCC5)ccc34)c(F)cc2Cl)nn1 + NC1CCC(NC2CC2c2ccccc2)CC1 , please?
Out: 1560
